# Assay Target: mA3AR (Mus musculus, UniProt Q61618)
# Sequence (Q61618 1-319): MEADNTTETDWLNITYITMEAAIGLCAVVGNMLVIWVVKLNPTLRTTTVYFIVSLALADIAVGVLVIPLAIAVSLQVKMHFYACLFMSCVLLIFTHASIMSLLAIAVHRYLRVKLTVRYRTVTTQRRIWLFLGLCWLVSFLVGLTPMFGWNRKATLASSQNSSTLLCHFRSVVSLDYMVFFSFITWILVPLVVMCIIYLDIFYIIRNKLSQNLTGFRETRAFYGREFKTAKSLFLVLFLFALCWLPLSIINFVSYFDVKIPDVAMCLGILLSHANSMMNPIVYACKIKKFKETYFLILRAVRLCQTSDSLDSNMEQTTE
# Test Description: cAMP functional assay (inhibition of forskolin-stimulated cAMP production), mA3AR in HEK293 cells
# Measurement Context: HEK293 cells, forskolin-stimulated; as printed in Figure 3; read-out: EC50, cAMP functional assay, mouse A3AR
pEC50: −log10 of the molar value.

{"Mol": "CNC(=O)[C@@]12C[C@@H]1[C@@H](n1cnc3c(NCc4cccc(Cl)c4)nc(C#CCCCCc4cn(CCNC(C)=O)nn4)nc31)[C@H](O)[C@@H]2O", "Assay Target": "mA3AR (Mus musculus, UniProt Q61618)", "pEC50": 8.40}

---

# Assay Target: mA3AR (Mus musculus)
# Sequence (Q61618 1-319): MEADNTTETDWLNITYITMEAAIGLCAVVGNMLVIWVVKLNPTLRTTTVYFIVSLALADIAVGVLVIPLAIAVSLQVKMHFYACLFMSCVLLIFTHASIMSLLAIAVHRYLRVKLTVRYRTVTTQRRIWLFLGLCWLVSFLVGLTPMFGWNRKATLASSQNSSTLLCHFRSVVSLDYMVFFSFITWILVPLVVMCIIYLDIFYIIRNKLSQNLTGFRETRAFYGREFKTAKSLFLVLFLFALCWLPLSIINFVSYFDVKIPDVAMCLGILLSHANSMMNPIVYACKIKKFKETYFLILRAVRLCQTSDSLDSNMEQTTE
# Test Description: Radioligand ([125I]I-AB-MECA) competition binding, mA3AR
# Measurement Context: [125I]I-AB-MECA; recombinant mAR on HEK293 cell membranes; Kiapp for the dendrimer conjugate; read-out: mA3AR, Ki or Kiapp

{"Mol": "CNC(=O)[C@@]12C[C@@H]1[C@@H](n1cnc3c(NCc4cccc(Cl)c4)nc(C#CCCCCc4cn(CCNC(C)=O)nn4)nc31)[C@H](O)[C@@H]2O", "Ki (nM)": 3.94}

---

# Assay Target: mA3AR (Mus musculus)
# Sequence (Q61618 1-319): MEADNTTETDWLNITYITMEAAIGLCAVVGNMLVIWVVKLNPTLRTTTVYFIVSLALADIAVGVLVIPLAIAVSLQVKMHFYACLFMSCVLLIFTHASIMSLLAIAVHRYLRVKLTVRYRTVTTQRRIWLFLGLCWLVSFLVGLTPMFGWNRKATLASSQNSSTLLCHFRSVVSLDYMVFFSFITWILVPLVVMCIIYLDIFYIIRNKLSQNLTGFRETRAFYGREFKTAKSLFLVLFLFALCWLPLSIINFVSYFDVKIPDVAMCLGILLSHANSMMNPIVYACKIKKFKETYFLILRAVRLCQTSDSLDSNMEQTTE
# Test Description: cAMP functional assay (inhibition of forskolin-stimulated cAMP production), mA3AR in HEK293 cells
# Measurement Context: HEK293 cells, forskolin-stimulated
Measured Quantity: IC50 (nM)

{"Mol": "CNC(=O)[C@@]12C[C@@H]1[C@@H](n1cnc3c(NCc4cccc(Cl)c4)nc(C#CCCCCc4cn(CCNC(C)=O)nn4)nc31)[C@H](O)[C@@H]2O", "Test Result": 4}

Origin of measurements: paper PMC3247180
